Origin of values: patent US6914045B2

System: Escherichia coli
Procedure Summary: in vitro antibacterial evaluation, MIC by broth dilution
Type: cell-based
Measurement Conditions: 18 hours at 35° C.
Observed Property: MIC Escherichia coli (GC 4559)

molecule="CC(c1ccccc1)C1NC(=O)CNC(=O)C(CO)NC(=O)C(C(O)C2CN(Cc3ccc(-c4ccccc4)cc3)C(=N)N2C2OC(CO)C(O)C(O)C2O)NC(=O)C(C(O)C2CNC(=NCc3ccc(-c4ccccc4)cc3)N2Cc2ccc(-c3ccccc3)cc2)NC(=O)C(Cc2ccc(OC3OC(CO)C(OC4OC(CO)C(O)C(O)C4O)C(O)C3O)cc2)NC1=O (stereo not shown)" result=">128 µg/mL"
molecule="CC(c1ccccc1)C1NC(=O)CNC(=O)C(CO)NC(=O)C(C(O)C2CN(c3nc4ccccc4o3)C(=N)N2C2OC(CO)C(O)C(O)C2O)NC(=O)C(C(O)C2CNC(=Nc3nc4ccccc4o3)N2)NC(=O)C(Cc2ccc(OC3OC(CO)C(OC4OC(CO)C(O)C(O)C4O)C(O)C3O)cc2)NC1=O (stereo not shown)" result=">128 µg/mL"
molecule="CC(C)=CCCC(C)=CCN=C1NCC(C(O)C2NC(=O)C(C(O)C3CNC(=N)N3)NC(=O)C(Cc3ccc(OC4OC(CO)C(OC5OC6COC7(OC6C(O)C5O)C5CC6CC(C5)CC7C6)C(O)C4O)cc3)NC(=O)C(C(C)c3ccccc3)NC(=O)CNC(=O)C(CO)NC2=O)N1C1OC(CO)C(O)C(O)C1O (stereo not shown)" result=">128 µg/mL"
molecule="CC(c1ccccc1)C1NC(=O)CNC(=O)C(CO)NC(=O)C(C(O)C2CNC(=N)N2C2OC(CO)C(O)C(O)C2O)NC(=O)C(C(O)C2CNC(=N)N2)NC(=O)C(Cc2ccc(OC3OC(CO)C(OC4OC5COC6(CCC(C(C)(C)C)CC6)OC5C(O)C4O)C(O)C3O)cc2)NC1=O (stereo not shown)" result=">64 µg/mL"

* * *

Test system: Staphylococcus sp.
Procedure Summary: in vitro antibacterial evaluation, MIC by broth dilution
Assay type: cell-based
Measurement Conditions: broth dilution, 18 hours at 35° C.
Attribute: MIC Coagulase Negative Staphylococcus (GC 4548)
Observed Property: MIC Coagulase Negative Staphylococcus (GC 4548) (µg/mL)

compound="CC(c1ccccc1)C1NC(=O)CNC(=O)C(CO)NC(=O)C(C(O)C2CN(c3nc4ccccc4s3)C(=N)N2C2OC(CO)C(O)C(O)C2O)NC(=O)C(C(O)C2CNC(=Nc3nc4ccccc4s3)N2)NC(=O)C(Cc2ccc(OC3OC(CO)C(OC4OC(CO)C(O)C(O)C4O)C(O)C3O)cc2)NC1=O (centres unmarked)" target_entity="Staphylococcus sp." comparison_sign=> quantitative_result=64
compound="CC(c1ccccc1)C1NC(=O)CNC(=O)C(CO)NC(=O)C(C(O)C2CNC(=N)N2C2OC(CO)C(O)C(O)C2O)NC(=O)C(C(O)C2CNC(=N)N2)NC(=O)C(Cc2ccc(OC3OC(CO)C(OC4OC5COC(CC6CCN(C(=O)OCc7ccccc7)CC6)OC5C(O)C4O)C(O)C3O)cc2)NC1=O (centres unmarked)" target_entity="Staphylococcus sp." comparison_sign== quantitative_result=0.5
compound="CC(C)CC1OCC2OC(OC3C(CO)OC(Oc4ccc(CC5NC(=O)C(C(C)c6ccccc6)NC(=O)CNC(=O)C(CO)NC(=O)C(C(O)C6CNC(=N)N6C6OC(CO)C(O)C(O)C6O)NC(=O)C(C(O)C6CNC(=N)N6)NC5=O)cc4)C(O)C3O)C(O)C(O)C2O1 (centres unmarked)" target_entity="Staphylococcus sp." comparison_sign== quantitative_result=1
compound="CCC(C)C(=O)OC1C(CO)OC(OC2C(CO)OC(Oc3ccc(CC4NC(=O)C(C(C)c5ccccc5)NC(=O)CNC(=O)C(CO)NC(=O)C(C(O)C5CNC(=N)N5C5OC(CO)C(O)C(O)C5O)NC(=O)C(C(O)C5CNC(=N)N5)NC4=O)cc3)C(O)C2O)C(O)C1O (centres unmarked) [Example 278c]" target_entity="Staphylococcus sp." comparison_sign== quantitative_result=2
compound="CC(c1ccccc1)C1NC(=O)CNC(=O)C(CO)NC(=O)C(C(O)C2CNC(=N)N2C2OC(CO)C(O)C(O)C2O)NC(=O)C(C(O)C2CNC(=N)N2)NC(=O)C(Cc2ccc(OC3OC(COC(=O)OCc4ccccc4)C(OC4OC(CO)C(O)C(O)C4O)C(O)C3O)cc2)NC1=O (centres unmarked)" target_entity="Staphylococcus sp." comparison_sign== quantitative_result=2
compound="CCCCOC(=O)CCC1OCC2OC(OC3C(CO)OC(Oc4ccc(CC5NC(=O)C(C(C)c6ccccc6)NC(=O)CNC(=O)C(CO)NC(=O)C(C(O)C6CNC(=N)N6C6OC(CO)C(O)C(O)C6O)NC(=O)C(C(O)C6CNC(=N)N6)NC5=O)cc4)C(O)C3O)C(O)C(O)C2O1 (centres unmarked)" target_entity="Staphylococcus sp." comparison_sign== quantitative_result=1
compound="CC(c1ccccc1)C1NC(=O)CNC(=O)C(CO)NC(=O)C(C(O)C2CNC(=N)N2C2OC(CO)C(O)C(O)C2O)NC(=O)C(C(O)C2CNC(=N)N2)NC(=O)C(Cc2ccc(OC3OC(CO)C(OC4OC5COC(C6CCCC6)OC5C(O)C4O)C(O)C3O)cc2)NC1=O (centres unmarked)" target_entity="Staphylococcus sp." comparison_sign== quantitative_result=1
compound="CC(c1ccccc1)C1NC(=O)CNC(=O)C(CO)NC(=O)C(CC2CNC(=N)N2C2OC(CO)C(O)C(O)C2O)NC(=O)C(CC2CNC(=N)N2)NC(=O)C(Cc2ccc(OC3OC(CO)C(OC4OC(CO)C(O)C(OCc5ccc(OCc6ccccc6)cc5)C4O)C(O)C3O)cc2)NC1=O (centres unmarked) [Example 246b]" target_entity="Staphylococcus sp." comparison_sign== quantitative_result=64
compound="COc1ccc(COCC2OC(OC3C(CO)OC(Oc4ccc(CC5NC(=O)C(C(C)c6ccccc6)NC(=O)CNC(=O)C(CO)NC(=O)C(C(O)C6CNC(=N)N6C6OC(CO)C(O)C(O)C6O)NC(=O)C(C(O)C6CNC(=N)N6)NC5=O)cc4)C(O)C3O)C(O)C(O)C2O)cc1 (centres unmarked)" target_entity="Staphylococcus sp." comparison_sign== quantitative_result=2
compound="CC(c1ccccc1)C1NC(=O)CNC(=O)C(CO)NC(=O)C(C(O)C2CN(c3ncccn3)C(=N)N2C2OC(CO)C(O)C(O)C2O)NC(=O)C(C(O)C2CNC(=Nc3ncccn3)N2)NC(=O)C(Cc2ccc(OC3OC(CO)C(OC4OC(CO)C(O)C(O)C4O)C(O)C3O)cc2)NC1=O (centres unmarked)" target_entity="Staphylococcus sp." comparison_sign=> quantitative_result=128
